Biological target: human Siglec-8 (full-length, on transfected CHO or 293 cells, or native on human eosinophils) (human, UniProt Q9NYZ4 17-499)
Sequence (Q9NYZ4 17-499): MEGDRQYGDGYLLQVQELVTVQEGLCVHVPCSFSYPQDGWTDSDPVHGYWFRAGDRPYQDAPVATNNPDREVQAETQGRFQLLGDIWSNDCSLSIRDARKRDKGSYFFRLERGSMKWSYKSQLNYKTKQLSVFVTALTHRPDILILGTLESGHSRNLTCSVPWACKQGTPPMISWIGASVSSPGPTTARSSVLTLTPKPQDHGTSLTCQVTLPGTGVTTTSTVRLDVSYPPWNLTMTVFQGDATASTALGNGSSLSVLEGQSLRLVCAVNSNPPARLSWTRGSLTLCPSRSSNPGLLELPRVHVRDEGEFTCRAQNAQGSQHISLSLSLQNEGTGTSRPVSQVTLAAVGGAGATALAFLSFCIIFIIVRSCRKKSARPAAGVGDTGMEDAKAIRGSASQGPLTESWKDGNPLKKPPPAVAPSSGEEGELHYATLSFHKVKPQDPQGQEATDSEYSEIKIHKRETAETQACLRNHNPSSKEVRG
Test: flow cytometry on 293 cells transiently transfected with full-length human Siglec-8; A647 anti-human Fc-gamma secondary; median fluorescence, nonlinear fit; table under the graph (Kd column without unit, concentration axis nM Ab)
pKd: −log10 of the molar value.
Measured pKd, listed per entry.
endpoint: pKd

1. Siglec8 hzG2v17, monomeric VHH-hIgG1 fusion (Fc NNT) (Fc fusion, Monomeric format; not shown: non-dimerizing human IgG1 Fc variant lacking a hinge (Fc NNT)) EVQLLESGGGEVQPGGSLRLSCAASGSISIFSIYVVAWYRQAPGKEREWVAFIQRGGTANYAESAKGRFTISRDNAKNTVYLQMSSLRAEDTAVYYCNYINSDNEIGGPWGQGTLVTVKP = 9.84
2. hzG2v19 (Fc fusion, also called Siglec8 hzG2v19; monomeric VHH-hIgG1 fusion (Fc NNT); not shown: The non-dimerizing, hinge-less human IgG1 Fc variant (Fc NNT) and any linker to it) VHH: EVQLLESGGGEVQPGGSLRLSCAASGSISIFSSYAVAWYRQAPGKEREWVAFIQRGGTANYAESAKGRFTISRDNAKNTVYLQMSSLRAEDTAVYYCNYINSDNEIGGPWGQGTLVTVKP = 7.38
3. hzG2v21 (Fc fusion, also called Siglec8 hzG2v21; monomeric VHH-hIgG1 fusion (Fc NNT); not shown: The non-dimerizing, hinge-less human IgG1 Fc variant (Fc NNT) and any linker to it) VHH: EVQLLESGGGEVQPGGSLRLSCAASGSISIFSSYAMSWYRQAPGKEREWVAFIQRGGTANYAESAKGRFTISRDNAKNTVYLQMSSLRAEDTAVYYCNYINSDNEIGGPWGQGTLVTVKP = 6.59
